Data origin: PubChem BioAssay (NCI)

System: RPMI-8226 leukemia
Test: NCI tumour cell line growth inhibition, 48 h; in the data active means GI50 below about 0.43 µM; inactive means the rest
// classify into active, inactive

Called result for CN1CC(CNC(=O)OCc2ccccc2)CC2c3cccc4c3c(cn4C)CC21 (centres undefined) inactive

Answer briefly: the call reported for "O=C(Nc1nc2ccc(F)cc2s1)c1cccnc1Nc1ccc(Cl)cc1" in this assay. inactive

# lookup: test call for "NC1=NCCN1CC(=O)O" inactive

Called result for "O=C(NCc1ccco1)c1ccc(NC2=C(Cl)C(=O)N(Cc3ccccc3)C2=O)cc1" inactive

I'd appreciate the recorded outcome for "COc1ccc(-c2cc(-c3ccc(O)cc3)nc3n[nH]c(N)c23)cc1" from this test. inactive

Which outcome was assigned to "C[C@H](CCCNCCCNCCCN)[C@H]1CC[C@H]2[C@@H]3[C@H](OCCCN)C[C@H]4C[C@H](OCCCN)CC[C@]4(C)[C@H]3C[C@H](OCCCN)[C@]12C" in this test? active

Hi, sorry to bother you, what did the test record for "CCCCN(CCCC)CCCn1c(=O)c2c3ccccc3n(C)c2n2nnc(-c3ccccc3)c12" ? inactive

// param item: "Cc1ncsc1-c1ccc(CNC(=O)[C@@H]2C[C@@H](O)CN2C(=O)[C@@H](NC(=O)C2(C#N)CC2)C(C)(C)C)cc1" ; yields the recorded call inactive

Identify the outcome logged in this assay for the compound shown: "CNC(=O)Oc1cc(C)c(/C=C/c2cncc(C(=O)NC)c2)c(C)c1" inactive

---

Tested on: OVCAR-4 ovarian
Assay: NCI tumour cell line growth inhibition, 48 h; in the data active means GI50 below about 0.43 µM; inactive means the rest
A correct response names exactly one class from 1.0 (active), 0.0 (inactive)

Give the logged outcome of this assay for the following molecule: "CN(C)CCCNC(=O)c1cncnc1Nc1ccc(OCc2cccc(F)c2)c(Cl)c1" 0.0

Look up the recorded call for "O=C(/C(=C/c1ccc([N+](=O)[O-])cc1)SCc1ccc(F)cc1)c1ccc(Cl)cc1" in this test. 0.0

Recorded test call requested for COC(=O)[C@H](Cc1ccc(O)cc1)NC(=O)[C@@H](OC)[C@@H]1Cc2cc3cc(OC4CC(OC5CC(O)C(O)C(C)O5)C(O)C(C)O4)c(C)c(O)c3c(O)c2C(=O)[C@H]1OC1CC(OC2CC(OC3CC(C)(O)C(O)C(C)O3)C(O)C(C)O2)C(O)C(C)O1 (some centres undefined) 1.0

What was the test verdict on "N#CC1=C(N)NC(=S)NC12Nc1ccccc1N2" ? 0.0

---

Provide the recorded TGI for the entries that follow.
Test system: 786-0 renal
Test: NCI tumour cell line growth inhibition, 48 h

The compound identified as "O=C(Nc1nc2ccc(F)cc2s1)c1cccnc1Nc1ccc(Cl)cc1" registered its TGI at > 100 µM

Per the records, this compound ( CC(=O)C1(N=Nc2ccc(S(N)(=O)=O)cc2)CCOC1=O (stereo unspecified) ) has TGI equal to > 100 µM

// sample CC(C)N1CN(C(C(=O)N[C@@H]2C(=O)N3C2SC(C)(C)C3C(=O)O)c2ccc(O)cc2)CSC1=S (stereo partly specified) , its TGI was > 100 µM

Just so you know, measured TGI for "COCn1c(C)c(C)c2c(=O)oc(N(C)C)nc21" came out at > 100 µM

The reported value for "COc1cc(OC)c(NC(=O)c2cc3ccccc3cc2O)cc1Cl" in terms of TGI is > 100 µM

Record "CCOc1ccccc1NC(=O)CCc1n[nH]c(=S)o1" , field TGI: > 100 µM

The compound "NC1=NCCN1CC(=O)O" showed TGI equal to > 10000 µM

Recorded TGI (compound "O=c1c2cc([N+](=O)[O-])ccc2nc2n1CCCCC2" ): > 100 µM

Looking up "CC[C@@]1(O)C(=O)OCc2c1cc1n(c2=O)Cc2c-1nc1cc3c(cc1c2C)OCO3" , I found its TGI recorded as 8.15 µM

"CCCCC(=O)OC[n+]1ccc2c(C)c3[nH]c4ccccc4c3c(C)c2c1" has a reported TGI of 1.62 µM

// sample "O=[N+]([O-])c1cc(Cl)cc2cc(Br)cnc12" , its TGI was > 31.6 µM
